FYI, the data here is from patent US20140051696A1.

method-description: Plasma pharmacokinetics in healthy human subjects, alone or in combination
study-conditions: human, in vivo, 200 mg, Cmax, Mean (% CV), Compound B analyte; Compound B 200 mg BID alone, fed (N = 8)
value-type: Cmax (ng/mL)
Give the value in ng/mL but do not write ng/mL after it.

Exercise: Entry under review: c1cn2cc(-c3ccc4cn[nH]c4c3)nc(Nc3ccc(N4CCOCC4)cc3)c2n1 . Reported Cmax?
Key: 618

###

method-description: Plasma pharmacokinetics in healthy human subjects, alone or in combination
study-conditions: human, plasma, oral, AUCtau, Mean (% CV), Compound A analyte; Compound A 150 mg + Compound B 600 mg BID, fed (N = 6)
value-type: AUC (µg·h/mL)
Form entry: value (µg·h/mL) — number only.

Exercise: # query: AUC of entry CC[C@H](Nc1ncnc2[nH]cnc12)c1nc2cccc(F)c2c(=O)n1-c1ccccc1
Key: 15.8
